Origin of measurements: the supplement of paper PMC9135407

test system: primary human hepatic stellate cells (donor 1); assay: scaled lipid accumulation score (0 = DMSO-like, 1 = nortriptyline-like); higher = stronger HSC inactivation (lipid re-accumulation), active = hit call of the paper; details: 48 h
Where a name gives a salt, the structure may show the parent alone. Among all 5,800 compounds or so, about 620 (11%) showed activity.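 How the source made its calls: active = score above a cut-off or among the top three wells of a plate; in these data no inactive exceeds 0.85.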 For the sample, actives were picked, then their nearest neighbours and some compounds at random.
Classes used: YES = active, NO = inactive

• CN(C)CCCC1(c2ccc(F)cc2)OCc2cc(C#N)ccc21 (stereo not drawn) [Citalopram Hydrobromide] = NO
• Cc1cccc(CN2CCN(C(c3ccccc3)c3ccc(Cl)cc3)CC2)c1 (stereo not drawn) [Meclozine dihydrochloride] = NO
• CN(C)C(=O)C(CCN1CCC(O)(c2ccc(Cl)cc2)CC1)(c1ccccc1)c1ccccc1 [Loperamide hydrochloride] = NO
• OC(CCCN1CCCCC1)(c1ccccc1)c1ccccc1 [Diphenidol hydrochloride] = NO
• CNCCCN1c2ccccc2CCc2ccccc21.Cl [Desipramine hydrochloride] = YES
• OCCOCCN1CCN(C(c2ccccc2)c2ccc(Cl)cc2)CC1 (stereo not drawn) [Hydroxyzine dihydrochloride] = NO
• COc1c2c(nc3ccccc13)OC(C(C)(O)CO)C2 (stereo not drawn) [Dubinidine] = NO
• CC(C)n1c(/C=C/C(O)CC(O)CC(=O)O)c(-c2ccc(F)cc2)c2ccccc21 (stereo not drawn) [Fluvastatin sodium salt] = NO

###

system: primary human hepatic stellate cells (donor 1); assay: scaled lipid accumulation score (0 = DMSO-like, 1 = nortriptyline-like); higher = stronger HSC inactivation (lipid re-accumulation), active = hit call of the paper; conditions: library stock concentration: 10 mM; 48 h
In all, about 5,800 compounds went through this assay and about 620 (11%) showed activity.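 Rule for the calls: active = score above a cut-off or among the top three wells of a plate; in these data no inactive exceeds 0.85.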 What follows is part of a selection rich in actives, with near analogues and random picks from the rest.
Classes used: active, inactive

- COc1ccc(/C=C/c2nc(NCCCN(C)C)c3ccccc3n2)cc1: inactive
- CC(C)C[C@@H]1NC(=O)[C@H](CCCN)NC(=O)[C@H](C(C)C)NC(=O)[C@H](Cc2ccc(O)cc2)N[C@@H](CCC(=O)O)C(=O)N[C@@H](CC(N)=O)C(=O)[C@@H](Cc2ccccc2)NC(=O)[C@H](Cc2ccccc2)NC(=O)[C@@H]2CCCN2C(=O)[C@@H](Cc2ccccc2)NC1=O: inactive
- CSc1ccccc1N1CCN(CCCCCC(=O)NC2CCCc3ccccc32)CC1.Cl (stereo not given): active
- COc1cc2ncnc(Nc3cc(Br)c(O)c(Br)c3)c2cc1OC: inactive
- CC(=O)c1ccc2c(c1)N(CCCN1CCN(CCO)CC1)c1ccccc1S2: inactive

###

tested on: primary human hepatic stellate cells (donor 1); test: scaled lipid accumulation score (0 = DMSO-like, 1 = nortriptyline-like); higher = stronger HSC inactivation (lipid re-accumulation), active = hit call of the paper; conditions: library stock concentration: 400 uM; 48 h
The campaign covered roughly 5,800 compounds. About 620 (11%) showed activity. The list comes from a sample in which actives are over-represented; it also holds close analogues and randomly drawn compounds.
Property: scaled lipid accumulation score; scope: individual molecules
Observed property: scaled lipid accumulation score

- Nc1cccc2c1CN(C1CCC(=O)NC1=O)C2=O (centres undefined) [Lenalidomide]: 0.005 (inactive)
- COc1cc(N2CCN(C)CC2)ccc1Nc1ncc2c(n1)N(C)c1ccccc1C(=O)N2C: 0.062 (inactive)
- Cc1ccc(Nc2cc(-c3cccc(N4C(=O)c5ccccc5C4=O)c3)ncn2)cc1NS(C)(=O)=O: ≤ -0.016 (inactive)
- COc1cc(N2CCC(N3CCN(C)CC3)CC2)ccc1Nc1ncc(Cl)c(-c2c[nH]c3ccccc23)n1: 0.358 (inactive)
- c1ccc2c(-c3cnn4cc(-c5ccc(N6CCNCC6)cc5)cnc34)ccnc2c1: ≤ -0.009 (inactive)
- COc1cc2ncnc(N3CCN(C(=O)Nc4ccc(Oc5ccccc5)cc4)CC3)c2cc1OC: ≤ -0.001 (inactive)
- CNc1nc(-c2ccc3c(N)n[nH]c3c2)cc(N2C[C@@H](C(=O)NC3CCCCC3)CC[C@H]2C)n1: ≤ -0.016 (inactive)
- COc1cc2c(Nc3ccc(NC(=O)c4ccccc4)cc3)ncnc2cc1OCCCN1CCOCC1: ≤ -0.009 (inactive)
- COc1cc2c(N3CCN(C(=O)Nc4ccc(OC(C)C)cc4)CC3)ncnc2cc1OCCCN1CCCCC1: 0.045 (inactive)

###

Property: scaled lipid accumulation score; scope: individual molecules
tested on: primary human hepatic stellate cells (donor 1); assay: scaled lipid accumulation score (0 = DMSO-like, 1 = nortriptyline-like); higher = stronger HSC inactivation (lipid re-accumulation), active = hit call of the paper; details: library stock concentration: 4.9 mM; 48 h
Structures can show the parent of a compound that is named as a salt. The whole screen tested about 5,800 compounds, of which about 620 (11%) showed activity. The entries come from a sample that favours actives as a whole.
Observed property: scaled lipid accumulation score

• CCN(CC)CCOc1ccc2c(c1)C(=O)c1cc(OCCN(CC)CC)ccc1-2 = 0.006 (inactive)
• COc1cc2c(cc1OC)-c1c/c(=N\c3c(C)cc(C)cc3C)n(C)c(=O)n1CC2 = 0.164 (inactive)
• CCN(CC)CCOc1ccc(C(=C(Cl)c2ccccc2)c2ccccc2)cc1 [Clomiphene citrate] = 0.705 (inactive)
• CCOC(=O)C1=C(COCCN)NC(C)=C(C(=O)OC)C1c1ccccc1Cl (configuration not stated) = ≤ -0.006 (inactive)
• Nc1ccc(S(=O)(=O)O)cc1.Nc1ccc(S(=O)(=O)O)cc1.[Zn] [Sulfanilate zinc] = ≤ 0 (inactive)
• CN(C)CCOc1ccc(/C(=C(/CCCl)c2ccccc2)c2ccccc2)cc1 = 0.264 (inactive)
• CC(=O)O[C@]1(C(C)=O)CC[C@H]2[C@@H]3C=C(Cl)C4=CC(=O)CC[C@]4(C)[C@H]3CC[C@@]21C [Chlormadinone acetate] = 0.08 (inactive)

###

test system: primary human hepatic stellate cells (donor 1); test: scaled lipid accumulation score (0 = DMSO-like, 1 = nortriptyline-like); higher = stronger HSC inactivation (lipid re-accumulation), active = hit call of the paper; details: library stock concentration: 80 uM; 48 h
Among all 5,800 compounds or so, about 620 (11%) showed activity. Only a selection was taken, and actives are over-represented in it overall.
Observed property: scaled lipid accumulation score

- COc1ccc(N(C(=O)Oc2cc(C(=O)Nc3cccc(C(F)(F)F)c3)ccc2C)c2ccnc(Nc3ccc(N4CCN(C)CC4)cc3)n2)c(OC)c1: 0.07 (inactive)
- COc1cc(N2CCN(C)CC2)ccc1Nc1ncc2c(n1)N(C)c1ccccc1C(=O)N2C: 0.087 (inactive)
- C[C@@H](N)c1ccc(C(=O)Nc2ccnc3[nH]ccc23)cc1: ≤ -0.009 (inactive)
- COc1cc(N2CCC(N3CCN(C)CC3)CC2)ccc1Nc1ncc(Cl)c(-c2c[nH]c3ccccc23)n1: 0.057 (inactive)
- CC(C)c1nn(-c2c(Cl)cccc2Cl)c2nc(Cc3ccc(OCCO)cc3)[nH]c(=O)c12: 0.074 (inactive)
- COc1cc2nccc(Oc3ccc(NC(=O)Nc4cc(C)on4)c(Cl)c3)c2cc1OC: 0.016 (inactive)
- NC(=O)c1ccc(N(C(N)=O)c2c(F)cccc2F)nc1-c1ccc(F)cc1F: ≤ -0.001 (inactive)
- Cc1ccc(NC(=O)c2ccc(CN3CCN(C)CC3)cc2)cc1Nc1nccc(-c2cccnc2)n1 [Imatinib]: ≤ 0 (inactive)
- O=C1NCCc2[nH]c(-c3ccncc3)cc21: ≤ -0.016 (inactive)
- O=C1NC(=O)/C(=C/c2ccc3nccnc3c2)S1: ≤ -0.016 (inactive)
- O=c1[nH]c(C2CCCN2)nc2c1oc1ccc(Cl)cc12 (centres undefined): ≤ 0 (inactive)
- C#Cc1cccc(Nc2ncnc3cc(OCCOC)c(OCCOC)cc23)c1: ≤ -0.009 (inactive)
- COc1cc2c(Nc3ccc(NC(=O)c4ccccc4)cc3)ncnc2cc1OCCCN1CCOCC1: ≤ -0.001 (inactive)
- COc1ccc(N(C(=O)Nc2c(C)cccc2C)c2cc(Nc3ccc(N4CCN(C)CC4)cc3)ncn2)c(OC)c1: ≤ -0.016 (inactive)
- COc1cc(O)c2c(c1)/C=C/C[C@H](O)[C@H](O)C(=O)/C=C\C[C@H](C)OC2=O [5z-7-oxozeaenol]: ≤ -0.016 (inactive)
- CNC(=O)c1ccc(C)c(-n2c(C)cc(OCc3ccc(F)cc3F)c(Br)c2=O)c1: 0.057 (inactive)
- COc1cc(Oc2ccnc3cc(OC)c(OC)cc23)ccc1NC(=O)NC(C)c1nccs1 (centres undefined): ≤ -0.016 (inactive)
- O=C(NCCCNc1nc(Nc2cccc(CN3CCOCC3)c2)ncc1C1CC1)C1CCC1: ≤ 0 (inactive)
- COc1cc(N2CCC(C(N)=O)CC2)ccc1Nc1nc(N)c(Cl)c(Nc2ccccc2S(=O)(=O)C(C)C)n1: ≤ 0 (inactive)

###

tested on: primary human hepatic stellate cells (donor 1); experiment: scaled lipid accumulation score (0 = DMSO-like, 1 = nortriptyline-like); higher = stronger HSC inactivation (lipid re-accumulation), active = hit call of the paper; conditions: library stock concentration: 10 mM; 48 h
Structures can show the parent of a compound that is named as a salt. Screen size: about 5,800 compounds; about 620 (11%) showed activity.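 How the source made its calls: active = score above a cut-off or among the top three wells of a plate; in these data no inactive exceeds 0.85.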 The sample as a whole holds a higher share of actives than the screen did.
Classes used: yes (1) = active, no (0) = inactive

* CCOc1nc2cccc(C(=O)OC(C)OC(=O)OC3CCCCC3)c2n1Cc1ccc(-c2ccccc2-c2nn[nH]n2)cc1 (centres undefined) [Candesartan Cilexetil] | no (0)
* N=C(N)NC(=O)c1nc(Cl)c(N)nc1N [Amiloride hydrochloride] | no (0)
* CC(O)C(=O)O.N (centres undefined) | no (0)
* COC(=O)C[C@](O)(CCCC(C)(C)O)C(=O)O[C@@H]1C(OC)=C[C@]23CCCN2CCc2cc4c(cc2[C@H]13)OCO4 | yes (1)
